Just for reference, the OPERA property sets (Mansouri et al. 2018) is where these values come from.

endpoint label: logP

# molecule, endpoint label, observed result
records = [
    ("Clc1cc(Cl)cc(-c2c(Cl)cc(Cl)c(Cl)c2Cl)c1", "logP", 7.1),
    ("COCCOCC1COC(Cn2cncn2)(c2ccc(Cl)cc2Cl)O1 (stereo not drawn)", "logP", 2.03),
    ("O=[N+]([O-])c1nccn1COC(CO)C(O)CO (stereo not drawn)", "logP", -1.47),
    ("CSCCNC(=O)C(F)(F)Cn1cnc([N+](=O)[O-])n1", "logP", 0.41),
    ("CS(=O)(=O)ON1C(=O)c2ccc(N)cc2C1=O", "logP", 0.8),
    ("C#CCOc1c(Cl)cc(NC=NOc2ccc(C)cc2)cc1Cl", "logP", 4.8),
    ("Oc1cccc(Cl)n1", "logP", 0.93),
    ("CCCc1ccc(OCC(C)O)c2c(=O)cc(C(=O)O)oc12 (stereo not drawn)", "logP", 3),
    ("CC(C)(C)C(=O)OCOC(=O)C1=C(CSc2nncs2)CSC2C(NC(=O)Cn3cnnn3)C(=O)N12 (stereo not drawn)", "logP", 1.45),
    ("C1CCC2=NCCCN2CC1", "logP", 1.38),
    ("COCC(Cn1ccnc1[N+](=O)[O-])OC (stereo not drawn)", "logP", 0.06),
    ("CCC(=O)C(CS(=O)(=O)c1ccccc1)c1ccccc1 (stereo not drawn)", "logP", 1.82),
    ("NC1C2CCC1c1ccccc1C2 (stereo not drawn)", "logP", 1.63),
]

----------
Each entry below carries its recorded logP.
Where a SMILES comes first, the peptide text is derived from it.

# molecule, logP
measured = [
    ("N#CC(C#N)=NNc1ccc(/N=N/c2ccccc2)cc1", 4.25),
    ("CN1CCN(Cc2ccc(Cl)nc2)C1=N[N+](=O)[O-]", 0.26),
    ("Cc1n[nH]c(C(=O)N2CCCC2)c1[N+](=O)[O-]", 0.25),
    ("O=[N+]([O-])C=C1NCCN1Cc1ccncc1", -1.05),
    ("Clc1cc(Cl)c(-c2ccc(Cl)c(Cl)c2Cl)c(Cl)c1", 7.25),
    ("CCC(C)NC(=O)C=C(N)c1ccc(Cl)cc1 (configuration not stated)", 2.94),
    ("CCCCCC(NC(C)=O)C(=O)OC (configuration not stated)", 1.28),
    ("CCCCCCC(=O)OC(C(=O)NC1C(=O)N2C(C(=O)O)=C(C)CSC12)c1ccccc1 (configuration not stated)", 3.23),
    ("CCCN1C(=O)NC(=O)C(=O)C1=O", 0.28),
    ("CC(C)(C)C(=O)OCCOCn1cnc2c(=O)[nH]c(N)nc21", 0.3),
    ("CCN1C(=O)C(=O)c2c(OC)cccc2C1=O", 0.9),
    ("O=C(NCO)c1c(I)c(C(=O)NCCO)c(I)c(N(CC(O)CO)C(=O)C(O)CO)c1I (configuration not stated)", -2.65),
    ("CCCOc1ccc(NC(=O)OCCN2CCOCC2)cc1", 2.78),
    ("COc1ccc(OCc2ccccc2CCCN2CCC(O)CC2)cc1", 3.1),
    ("COC1(NC(=O)CSC(F)F)C(=O)N2C(C(=O)OCOC(=O)C(C)(C)C)=C(CSc3nnnn3C)CSC21 (configuration not stated)", 2.31),
    ("CCN1C(=O)C(=O)c2ccc(OC)cc2C1=O", 1.49),
    ("CC12CCC(=O)C=C1CCC1C2CCC2(C)C1CCC21CCC(=O)O1 (configuration not stated)", 2.98),
    ("CCC(C)NC(=O)C(=Cc1ccccc1)c1ccccc1 (configuration not stated)", 4.05),
    ("CCOC(=O)c1ccc(OCC(OC(=S)n2ccnc2)C(C)(C)C)cc1 (configuration not stated)", 4.77),
    ("Cn1ccc(=O)c2ccccc21", 0.44),
    ("CCCCCCNC(=O)C1(O)C(C)CC2C3CCC4=CC(=O)C=CC4(C)C3(F)C(O)CC21C (configuration not stated)", 4.54),
    ("CC1CC2C3CCC4=CC(=O)C=CC4(C)C3(F)C(O)CC2(C)C1(O)C(=O)NCCO (configuration not stated)", 1.51),
    ("Cc1cccc(C)c1N", 1.84),
    ("CCC1COC(Cn2cncn2)(c2ccc(NC(=O)c3ccc([N+](=O)[O-])cc3)cc2)O1 (configuration not stated)", 2.17),
    ("CCN1C(=O)C(=O)c2ccccc2C1=O", 1.13),
    ("C#CCON=CNc1cc(Cl)c(OCC#C)c(Cl)c1", 3.3),
    ("Clc1ccc(-c2cc(Cl)c(Cl)c(Cl)c2Cl)cc1Cl", 7.6),
    ("Cn1cc(-c2ccccc2)c(=O)c(-c2cccc(C(F)(F)F)c2)c1", 3.16),
    ("COc1c([N+](=O)[O-])nc(C)n1C", -0.09),
    ("CCC(C)C(NC(=O)C(CC(C)C)NC(C)=O)C(=O)NC(CCC(=O)O)C(N)=O (stereo not drawn) (Ac-Leu-Ile-Glu-NH2; configuration not given here)", 0.07),
    ("CCCCC(C#N)(Cn1cncn1)c1ccc(Cl)cc1 (configuration not stated)", 2.94),
    ("CC(=O)NC(CCCN)C(=O)NC(Cc1ccccc1)C(N)=O (configuration not stated)", 0.41),
    ("c1ccc(SCc2ccccc2CCCN2CCOCC2)cc1", 3.8),
    ("O=C(NCCCCO)C(F)(F)Cn1ccnc1[N+](=O)[O-]", -0.29),
    ("Clc1cc(Cl)c(-c2cc(Cl)c(Cl)c(Cl)c2)c(Cl)c1", 7.25),
    ("O=c1cc2ccccc2n[nH]1", 0.68),
    ("CCCCCOc1cccc(NC(=O)OCCN2CCOCC2)c1", 4.13),
    ("COC(=O)C(C#N)=NNc1ccc(S(=O)(=O)C(F)(F)F)cc1", 4.22),
    ("CCCN(C=Nc1ccn(C2CC(O)C(CO)O2)c(=O)n1)CCC (configuration not stated)", 0.4),
    ("CCN(C)N=Nc1ccccc1C(N)=O", 2.59),
    ("ON=Cc1nnc(-c2ccccc2)o1", 2.03),
    ("c1ccc(OCc2cccc(CN3CCCC3)c2)cc1", 3.75),
    ("Clc1ccc(-c2ccccc2)c(Cl)c1Cl", 5.86),
    ("CCc1ccc(OCc2ccccc2CCCN2CCC(O)CC2)cc1", 3.75),
    ("CC(=O)OC1CC2(O)C3CCC4CC(OC5CC(O)C(OC6CC(O)C(OC7CC(O)C(O)C(C)O7)C(C)O6)C(C)O5)CCC4(C)C3CCC2(C)C1C1=CC(=O)OC1 (configuration not stated)", 2.16),
    ("C#CCC(O)(c1cccnc1)c1ccc(Cl)c(Cl)c1 (configuration not stated)", 2.42),
    ("Clc1ccc(Cl)c(-c2c(Cl)ccc(Cl)c2Cl)c1Cl", 7.12),
]
